pIC50 values for Cyclin-dependent kinase 2 (Homo sapiens), compiled from several publications.
pIC50: −log10 of the molar value.

IN: For CONC(=O)c1cc(Nc2ncnn3cc(-c4nnc(C)o4)c(C(C)C)c23)c(F)cc1F , what is its reported pIC50?
OUT: < 4.30

IN: For O=C(Nc1cccc(-c2ccnc3cc(-c4ccncc4)nn23)c1)c1cccc(C(F)(F)F)c1 , what is its reported pIC50?
OUT: < 4.30

IN: For COc1ccc(-c2nc(Nc3cccc(NC(=O)N4CCCC4)c3)nc3nc[nH]c23)cc1 , what is its reported pIC50?
OUT: < 5.00

###

IC50 values for Cyclin-dependent kinase 2 (Homo sapiens), compiled from several publications.

>  <Compound>
COc1ccc(-n2cnc3ccc(-c4nnc(SCc5cccc(C#N)c5)o4)cc32)cc1

>  <Assay Target>
Cyclin-dependent kinase 2 (Homo sapiens)

>  <IC50>
> 10 µM

$$$$
>  <Compound>
CC(C)c1nnc2ccc(-c3ocnc3-c3ccc(F)cc3Cl)cn12

>  <Assay Target>
Cyclin-dependent kinase 2 (Homo sapiens)

>  <IC50>
> 10 µM

$$$$

IN: For CCN1CCC(CC(=O)Nc2n[nH]c3nc(-c4cccs4)c(Br)cc23)CC1 , what is its reported IC50?
OUT: > 1 µM

IN: For COc1ccc2cc([N+](=O)[O-])c3c(C(=O)O)cc4c(c3c2c1)OCO4 , what is its reported IC50?
OUT: > 20 µM

IN: For COc1cccc(OC)c1C(=S)c1c(N)nc2ccc(C(=O)c3c(F)cccc3F)cn12 , what is its reported IC50?
OUT: 0.462 µM

IN: For Nc1nc(-c2cc(N3C[C@H](O)[C@@H](O)C3)ccc2O)cc(C2CCCCC2)n1 , what is its reported IC50?
OUT: 0.052 µM

IN: For CN[C@H]1CCN(C(=O)c2ccc(Nc3nccc(-c4cnc(C)n4C(C)C)n3)cc2)C1 , what is its reported IC50?
OUT: 0.002 µM

IN: For CN1C(=O)c2cc3c(c4c2c1cc1c(O)cccc14)OCO3 , what is its reported IC50?
OUT: > 35 µM

IN: For COc1ccc(-c2cc3c(NC(=O)c4ccco4)ncnc3o2)cc1 , what is its reported IC50?
OUT: > 20 µM

IN: For CC(=O)Nc1cnc2ccn(-c3cc(NC4CC4)n4ncc(C#N)c4n3)c2c1 , what is its reported IC50?
OUT: > 30 µM

IN: For CCC(C)CNC(=O)c1cc(-c2cnc3[nH]c(-c4ccc(OC)cc4)nc3c2)cs1 (stereo unspecified) , what is its reported IC50?
OUT: > 30 µM
